Assay system: AGE-2 (glyceraldehyde-derived advanced glycation end product of human serum albumin) (Homo sapiens, UniProt P02768 P02768:25-609, HSA glycated with D-glyceraldehyde at 37 C for 7 days, dialysed against PBS)
Sequence (P02768 25-609, stated change not applied, one chain of several): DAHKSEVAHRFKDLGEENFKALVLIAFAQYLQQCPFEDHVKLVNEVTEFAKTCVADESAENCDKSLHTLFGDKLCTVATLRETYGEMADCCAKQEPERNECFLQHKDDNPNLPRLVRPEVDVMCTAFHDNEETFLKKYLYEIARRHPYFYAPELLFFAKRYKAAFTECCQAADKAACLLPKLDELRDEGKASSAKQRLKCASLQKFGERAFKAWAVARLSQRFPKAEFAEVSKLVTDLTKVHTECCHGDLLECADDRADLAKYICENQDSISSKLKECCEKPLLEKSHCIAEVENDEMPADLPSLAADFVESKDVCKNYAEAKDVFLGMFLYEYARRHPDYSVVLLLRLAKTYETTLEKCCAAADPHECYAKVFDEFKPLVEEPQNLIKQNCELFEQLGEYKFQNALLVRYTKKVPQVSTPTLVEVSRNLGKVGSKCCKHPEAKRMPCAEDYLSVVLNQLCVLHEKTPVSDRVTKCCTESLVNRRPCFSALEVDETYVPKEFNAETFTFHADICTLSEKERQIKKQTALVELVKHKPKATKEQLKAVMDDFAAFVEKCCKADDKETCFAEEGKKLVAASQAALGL
Experiment summary: AGE-2 fluorescence attenuation, 100 ug/mL AGE-2, 25 nM aptamer
Cond: tags: HSA from Sigma; immobilised on SulfoLink beads for SELEX
Measure name: binding signal

Use the examples below as a reference point.
AGE-2 aptamer 2 (ssDNA) DNA: ACCACTGCACGACCCCCACCAGTCCCACTCGCAGCGTCCATGGCCCCCACGCCCCA :: 175 ng AGE-2 bound per nmol aptamer
AGE-2 aptamer 11 (ssDNA) DNA: CCCAAGCACAATAGCCACACCCACGACCCACCCTCATATTCCGACCACGCTCCC :: 137 ng AGE-2 bound per nmol aptamer
AGE-2 aptamer 3 (ssDNA) DNA: CGCCCCCACACCACCGCCACGACCCCACAATCCCCCGAGGTCCCCCGCGTCCACAC :: 260 ng AGE-2 bound per nmol aptamer

Quick request: binding signal for each listed item, please.
1. AGE-2 aptamer 14 (ssDNA) DNA: CTGAATACCAACGTACCCCCTCCCAAGTCCCCCTACCCACGCTAAACTCAACCTCA
2. AGE-2 aptamer 15 (ssDNA) DNA: TACAGCCCCCCAACCCACCACCGCCGTAGATAACCACCCACCAACGATATCCCACT
3. AGE-2 aptamer 13 (ssDNA) DNA: CCTCAACACACCTCTAACCAACCCTCAGCCCAGCACAACACCCCCCAAACCGACAC
4. AGE-2 aptamer 10 (ssDNA) DNA: ATAACCCCGACGTACACGCCAACTATGCCCACAACCCGCCATAACCCACCACCTTC
5. AGE-2 aptamer 9 (ssDNA) DNA: TAACTCACTCCATACTCACTTGCTGATTCGCCAACAACACACCCTTAAACAGTCCC
6. AGE-2 aptamer 8 (ssDNA) DNA: AACTAGCCCGAGCCACAATCCCATAACAAGCGTGACCACACTATCCTGTCTTCCC
7. AGE-2 aptamer 4 (ssDNA) DNA: CCAGCCTCGATACCATACCCACCAACCCAACCAGACTCCACACACCCACGCGTCTC
8. AGE-2 aptamer 5 (ssDNA) DNA: CAAGCGCTCCATCCACCGACATACCTACCAAACACTCTCCTTGCCCATAAAACCAC

1: 158 ng AGE-2 bound per nmol aptamer; 2: 271 ng AGE-2 bound per nmol aptamer; 3: 175 ng AGE-2 bound per nmol aptamer; 4: 134 ng AGE-2 bound per nmol aptamer; 5: 117 ng AGE-2 bound per nmol aptamer; 6: 175 ng AGE-2 bound per nmol aptamer; 7: 210 ng AGE-2 bound per nmol aptamer; 8: 143 ng AGE-2 bound per nmol aptamer

Respectfully, I request binding signal for each entry included below.
1. AGE-2 aptamer 7 (ssDNA) DNA: CCACACTGCACTAAACCAGCGTCCCGGACCATCACAACCTCTGCCCACTAGCCCCT
2. AGE-2 aptamer 6 (ssDNA) DNA: CCCGCCATTCCCCTACATAACACCTACCCATCTCCCTTCCCAGTTAATCACCGC

1: 146 ng AGE-2 bound per nmol aptamer; 2: 202 ng AGE-2 bound per nmol aptamer
